Entries annotated with measured ATG_PXR_TRANS
Target: PXR (NR1I2) (Homo sapiens)
Sequence (O75469 whole entry): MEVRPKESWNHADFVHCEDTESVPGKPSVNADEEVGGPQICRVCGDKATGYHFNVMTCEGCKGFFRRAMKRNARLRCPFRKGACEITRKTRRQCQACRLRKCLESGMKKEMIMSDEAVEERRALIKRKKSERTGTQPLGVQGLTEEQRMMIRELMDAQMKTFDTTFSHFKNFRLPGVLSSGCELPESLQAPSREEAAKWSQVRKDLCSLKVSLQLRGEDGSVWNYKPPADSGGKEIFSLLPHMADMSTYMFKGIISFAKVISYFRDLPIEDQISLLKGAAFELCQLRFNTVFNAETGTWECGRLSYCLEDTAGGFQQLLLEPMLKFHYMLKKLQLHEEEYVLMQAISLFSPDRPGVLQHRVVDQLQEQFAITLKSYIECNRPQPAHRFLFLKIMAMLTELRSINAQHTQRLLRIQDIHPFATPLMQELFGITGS
Experiment: ATG_PXR_TRANS: Factorial reporter gene assay (HepG2)
Format: cell-based
Set-up: endogenous in cells; host or cells: HepG2
Details: HepG2; scale not given, looks like -log10 of molar active concentration; 0 = no activity
# print the numeric value only

Take a look at these entries with their results.
* CC(C)N1C(=O)N(c2ccccc2)CS/C1=N\C(C)(C)C | 5.42
* CC1=C(C(=O)Nc2ccccc2)SCCO1 | 0
* Cc1c(COC(=O)C2C(/C=C(\Cl)C(F)(F)F)C2(C)C)cccc1-c1ccccc1 (stereo not shown) | 5.387

Input CCSC(=O)N(CC(C)C)CC(C)C , output reported ATG_PXR_TRANS.
0

Input O=C1C2CC=CCC2C(=O)N1SC(Cl)(Cl)Cl (stereo not shown) , output reported ATG_PXR_TRANS.
0

Input COc1cc(Cl)c(OC)cc1Cl , output reported ATG_PXR_TRANS.
0

Input CCOC(=O)C(Cl)Cc1cc(-n2nc(C)n(C(F)F)c2=O)c(F)cc1Cl (stereo not shown) , output reported ATG_PXR_TRANS.
4.367

Ref: paper PMC3038857
